Reported pIC50 is given for each of the following molecules.
Biological target: Recombinant human TYK2 catalytic domain (Homo sapiens (Human))
Sequence (P29597 871-1187): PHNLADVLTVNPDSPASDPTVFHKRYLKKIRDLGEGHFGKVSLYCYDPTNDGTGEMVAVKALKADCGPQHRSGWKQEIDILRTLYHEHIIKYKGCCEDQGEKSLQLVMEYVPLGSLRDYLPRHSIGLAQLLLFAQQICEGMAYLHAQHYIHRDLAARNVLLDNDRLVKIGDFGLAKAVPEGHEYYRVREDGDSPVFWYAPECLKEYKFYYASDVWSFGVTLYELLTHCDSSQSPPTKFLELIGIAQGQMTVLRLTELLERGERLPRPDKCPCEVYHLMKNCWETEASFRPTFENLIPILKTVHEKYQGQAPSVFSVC
Assay: TYK2 inhibition assay
Format: biochemical
Settings: semi-quantitative score
pIC50: −log10 of the molar value.

Completed entries (count: 4):
According to the records, this molecule O=C(Nc1nc2cccc(-c3ccc(S(=O)(=O)NC4CC4)cc3)n2n1)C1CC1 [Compound 13] displays pIC50 of 6.00 to 6.30

According to the records, this molecule O=C(NCCOc1ccccc1)c1ccc(-c2cccc3nc(NC(=O)C4CC4)nn23)cc1 [Compound 60] displays pIC50 of 6.00 to 6.30

According to the records, this molecule O=C(Nc1nc2cccc(-c3ccc(CC(=O)N4CC(F)(F)C4)cc3)n2n1)C1CC1 [Compound 317] displays pIC50 of 6.30 to 7.00

According to the records, this molecule Cc1noc(C)c1COc1ccc(-c2cccc3nc(NC(=O)C4CC4)nn23)cc1 [Compound 49] displays pIC50 of < 6.00

---
According to the records, this molecule O=C(Nc1nc2cccc(-c3ccc(C(=O)N4CCCCC4)cc3)n2n1)C1CC1 [Compound 17] displays pIC50 of 6.00 to 6.30

According to the records, this molecule O=C(COc1ccc(-c2cccc3nc(NC(=O)C4CC4)nn23)cc1)Nc1cccc(F)c1 [Compound 116] displays pIC50 of < 6.00

According to the records, this molecule O=C(Nc1nc2cccc(-c3ccc(C(=O)N4CCC(O)(Cc5ccccc5)CC4)cc3)n2n1)C1CC1 [Compound 156] displays pIC50 of 6.30 to 7.00

According to the records, this molecule O=C(Nc1nc2cccc(-c3ccc(OCC4CCC4)cc3)n2n1)C1CC1 [Compound 39] displays pIC50 of < 6.00
